System: HOP-62 NSCLC
TEST: NCI tumour cell line growth inhibition, 48 h
QUANTITY_NAME: GI50

INSERT INTO assay_data (molecule, quantity_name, reported) VALUES
  ('Cc1c2c(nn1-c1ccc(S(=O)(=O)/N=C3\SCCC(=O)N3c3ccccc3)cc1)-c1ccccc1CC2', 'GI50', '46.4 µM'),
  ('CO[C@H]1/C=C(/C)CCC[C@H](C)[C@H](O)[C@@H](C)C(=O)C(C)(C)[C@@H](O)CC(=O)O[C@@H]1/C(C)=C/c1csc(C)n1', 'GI50', '0.0414 µM'),
  ('COc1ccc(-c2nnc(COc3ccc(NC(=O)Nc4cc(C(F)(F)F)cc(C(F)(F)F)c4)cc3F)o2)cc1', 'GI50', '2.69 µM'),
  ('COc1ccc([C@H]2[C@@H](F)C(=O)N2c2cc(OC)c(OC)c(OC)c2)cc1F', 'GI50', '0.511 µM'),
  ('CC(C)[C@H]1COC(=O)N1[C@@H]1C(=O)N([C@@H](CCC(=O)N2CCN(C3CCCC3)CC2)C(=O)N[C@@H]2CCCc3ccccc32)[C@@H]1/C=C/c1cccc(Br)c1', 'GI50', '1.82 µM'),
  ('Cc1cccc(NC(=O)Cn2cnc3sc(C(=O)OC(C)C)c(C)c3c2=O)c1', 'GI50', '13.7 µM'),
  ('CN1CCN(CCCn2c(=O)c3sc4ncccc4c3n3nnc(-c4ccccc4)c23)CC1', 'GI50', '8.19 µM'),
  ('CCN(CC)c1ccc(-c2cc(-c3cc(OC)c(OC)c(OC)c3)nc(N3CCOCC3)c2C#N)cc1', 'GI50', '2.24 µM'),
  ('COc1ccc(-c2nnc(COc3ccc(C(=O)/C=C/c4ccco4)cc3)o2)cc1', 'GI50', '2.5 µM'),
  ('Cc1cc2c(cc1Cl)SC(N(N(C)C)S(=O)(=O)c1ccc(Cl)cc1)=NS2(=O)=O', 'GI50', '29.6 µM'),
  ('O=C(Nc1ccc(Cl)cc1)c1cccc(NC2=C(Cl)C(=O)N(Cc3ccccc3)C2=O)c1', 'GI50', '10.3 µM'),
  ('OCC#Cc1ccccc1C#Cc1ccccc1', 'GI50', '13.9 µM'),
  ('O=C1OC(O)[C@@H]2[C@H]1[C@H]1CC[C@@H]2O1 (some centres undefined)', 'GI50', '> 100 µM'),
  ('[Cl-].[La+3].[O-]/N=C(\c1ccccc1)c1ccccn1.[O-]/N=C(\c1ccccc1)c1ccccn1.[O-]/N=C(\c1ccccc1)c1ccccn1', 'GI50', '28.4 µM');

---

Tested on: COLO 205 colon
TEST: NCI tumour cell line growth inhibition, 48 h
QUANTITY_NAME: TGI (µM)

INSERT INTO measurements (molecule, relation_symbol, reported) VALUES
  ('CCCCCCCC(=O)SCC/C=C/[C@@H]1CC(=O)NCc2cc(ccn2)C2=N[C@@](C)(CS2)C(=O)N[C@@H](C(C)C)C(=O)O1', '=', 0.147),
  ('O=C1OC(O)[C@@H]2[C@H]1[C@H]1CC[C@@H]2O1 (stereo not given in full)', '=', 6.31),
  ('O=[N+]([O-])c1ccc(Oc2c(Cl)cc(S(=O)(=O)/N=C(\NO)Nc3ccc(Cl)cc3)cc2Cl)cc1', '=', 29.9),
  ('OCC#Cc1ccccc1C#Cc1ccccc1', '=', 37.6),
  ('Cc1cc(I)cc(CN(C)CCCN2CCCCC2)c1O', '=', 27.3),
  ('CSc1nc(NC2OCC(OC(C)=O)C(OC(C)=O)C2OC(C)=O)c(N=CC=Nc2c(NC3OCC(OC(C)=O)C(OC(C)=O)C3OC(C)=O)nc(SC)[nH]c2=O)c(=O)[nH]1 (stereo not given)', '>', 100),
  ('COc1ccc(-c2nnc(COc3ccc(NC(=O)Nc4cc(C(F)(F)F)cc(C(F)(F)F)c4)cc3F)o2)cc1', '=', 3.3),
  ('Cn1cnc([N+](=O)[O-])c1Sc1nc2ccccc2[nH]1', '=', 23.1),
  ('Cc1cc2c(cc1Cl)SC(N(N(C)C)S(=O)(=O)c1ccc(Cl)cc1)=NS2(=O)=O', '>', 100),
  ('C/C(=N\NC(=S)NC(CCC(=O)O)C(=O)O)c1ccccn1 (stereo not given)', '>', 100);

---

compounds and their reported log10 TGI
System: ACHN renal
TEST: NCI tumour cell line growth inhibition, 48 h
QUANTITY_NAME: log10 TGI (log10 of the value in µM)

INSERT INTO measurements (compound, reported) VALUES
  ('CCN1CCN(c2nc(C)cc(N(CCNc3ccnc4cc(Cl)ccc34)Cc3ccc4c(c3)OCO4)n2)CC1', 0.72),
  ('COc1cc2c3c(n(C)c(=O)c2cc1OC)-c1cc2c(cc1/C3=C\CCN)OCO2', -0.23),
  ('CC(C)OP(=O)(OC(C)C)C(=NCCN=C(NNc1ccc([N+](=O)[O-])cc1)P(=O)(OC(C)C)OC(C)C)NNc1ccc([N+](=O)[O-])cc1', 1.82),
  ('Cc1cccc2c1CC1(C2)Cc2c(C)cccc2C1=O (stereo unspecified)', 1.93),
  ('COC1=CC(=O)C(C2CC(=O)c3c(O)cc(O)cc3O2)=CC1=O (stereo unspecified)', 1.47),
  ('CCN(CC)/C(SCc1ccccc1)=C(\C(Cl)=C(Cl)Cl)[N+](=O)[O-]', 1.47),
  ('N=C(N)SCc1ccc2c(c1)Sc1ccccc1O2', 1.23),
  ('NS(=O)(=O)c1cc(Br)c(N=Nc2ccc(O)c3ncccc23)c(Br)c1', 1.64),
  ('CN1CCN(CCCn2c(=O)c3sc4ncccc4c3n3nnc(-c4ccccc4)c23)CC1', 1.18),
  ('Nc1ncnc2c1nnn2C1OC(CO)C(O)C1O (stereo unspecified)', 0.95),
  ('CC(C)(C)OC(=O)N[C@H]1CC2(C=C(Cl)C(=O)C(Cl)=C2)OC1=O', 1.45);

---

Test system: NCI-H23 lung
TEST: NCI tumour cell line growth inhibition, 48 h
QUANTITY_NAME: GI50

INSERT INTO measurements (compound, quantity_name, reported) VALUES
  ('CCN1CCN(c2nc(C)cc(N(CCNc3ccnc4cc(Cl)ccc34)Cc3ccc4c(c3)OCO4)n2)CC1', 'GI50', '3.44 µM'),
  ('COc1ncnc(NS(=O)(=O)c2ccc(N=C3C(=O)N(CN4CCN(c5c(F)cc6c(=O)c(C(=O)O)cn(C7CC7)c6c5OC)CC4C)c4ccc(Cl)cc43)cc2)c1OC (stereo not drawn)', 'GI50', '13.5 µM'),
  ('COc1cc2c3c(n(C)c(=O)c2cc1OC)-c1cc2c(cc1/C3=C\CCCN)OCO2', 'GI50', '8.07 µM');

---

Test system: M14 melanoma
TEST: NCI tumour cell line growth inhibition, 48 h; in the data active = GI50 below about 0.43 µM; inactive = the rest
Classes used: active, inactive

INSERT INTO measurements (compound, assigned_class) VALUES
  ('Cc1cc2c(cc1Cl)SC(N(N(C)C)S(=O)(=O)c1ccc(Cl)cc1)=NS2(=O)=O', 'inactive'),
  ('O=C(/C=C/c1ccc(Cl)cc1)c1ccc(Nc2ccnc3cc(Cl)ccc23)cc1', 'inactive'),
  ('COc1ncnc(NS(=O)(=O)c2ccc(N=C3C(=O)N(CN4CCN(c5c(F)cc6c(=O)c(C(=O)O)cn(C7CC7)c6c5OC)CC4C)c4ccc(Cl)cc43)cc2)c1OC (stereo unspecified)', 'inactive'),
  ('CC(C)[C@H]1COC(=O)N1[C@@H]1C(=O)N([C@@H](CCC(=O)N2CCN(C3CCCC3)CC2)C(=O)N[C@@H]2CCCc3ccccc32)[C@@H]1/C=C/c1cccc(Br)c1', 'inactive'),
  ('COc1cccc(-c2nc(-c3ccc(NC(=O)C(C)C)cc3)[nH]c2-c2ccnc(Br)c2)c1', 'inactive'),
  ('CN(C(=O)c1ccc(C(F)(F)F)cc1)c1ccc(Oc2ccc3c(c2)cc(C(=O)N2CCN(Cc4ccc(OC(F)F)cc4)CC2)n3C)nc1', 'inactive'),
  ('C[C@@H]1CCC2[C@@H](C)[C@@H](OCC(CO[C@H]3OC4O[C@@]5(C)CC[C@H]6[C@H](C)CCC([C@H]3C)[C@@]46OO5)OC(=O)CCC(=O)O)OC3O[C@@]4(C)CC[C@@H]1[C@]32OO4 (stereo partly specified)', 'inactive'),
  ('Cc1cccc(NC(=O)Cn2cnc3sc(C(=O)OC(C)C)c(C)c3c2=O)c1', 'inactive'),
  ('CO[C@H]1/C=C(/C)CCC[C@H](C)[C@H](O)[C@@H](C)C(=O)C(C)(C)[C@@H](O)CC(=O)O[C@@H]1/C(C)=C/c1csc(C)n1', 'active'),
  ('CCCCCCCC(=O)SCC/C=C/[C@@H]1CC(=O)NCc2cc(ccn2)C2=N[C@@](C)(CS2)C(=O)N[C@@H](C(C)C)C(=O)O1', 'active'),
  ('Cn1cnc([N+](=O)[O-])c1S(=O)(=O)Oc1cccc2ccccc12', 'inactive'),
  ('CCN(CC)c1ccc(-c2cc(-c3cc(OC)c(OC)c(OC)c3)nc(N3CCOCC3)c2C#N)cc1', 'active'),
  ('COc1cc2c3c(n(C)c(=O)c2cc1OC)-c1cc2c(cc1/C3=C\CCCN)OCO2', 'inactive'),
  ('Cc1c2c(nn1-c1ccc(S(=O)(=O)/N=C3\SCCC(=O)N3c3ccccc3)cc1)-c1ccccc1CC2', 'inactive'),
  ('O=c1c2sccc2n(CC2COc3ccccc3O2)c(=O)n1O (stereo unspecified)', 'inactive'),
  ('COc1cc2c3c(n(C)c(=O)c2cc1OC)-c1cc2c(cc1/C3=C\CCN)OCO2', 'active');

The reported numbers originate from PubChem BioAssay (NCI).
